Sourced from PubChem BioAssay AID686978

assay: qHTS for Inhibitors of human tyrosyl-DNA phosphodiesterase 1 (TDP1): qHTS in cells in absence of CPT; details: DT40 Tdp1-/- hTDP1 cells, no CPT, ATP luminescence, 48 h; note: nearly all actives have a fitted effect of over 55% in size
Out of some 420,000 compounds screened, about 64,000 (15%) were called active. Not shown: some 27% with an inconclusive outcome. Only a sample is shown.
assay metric: outcome

The cases that follow already have their outcome on record.
C=CCN(c1ccc(C(=O)Nc2cc(C)cc(C)c2)cc1)S(C)(=O)=O    inactive
Cc1ccc(C)c(NC2=NCC(=O)N2c2ccc3c(c2)OCCO3)c1    inactive
NS(=O)(=O)c1ccc(NC(=O)COC(=O)c2ccc(Cl)nc2)cc1    inactive
Cc1cccc(NC(=O)C(C)N2C(=O)C3C4CC(C(Br)C4Br)C3C2=O)c1 (stereo not given)    inactive

Kindly note the recorded outcome for `O=S(=O)(ON(c1ccccc1)S(=O)(=O)c1ccccc1)c1ccccc1` , which is inactive

###

test: qHTS for Inhibitors of human tyrosyl-DNA phosphodiesterase 1 (TDP1): qHTS in cells in absence of CPT; conditions: DT40 Tdp1-/- hTDP1 cells, no CPT, ATP luminescence, 48 h; note: nearly all actives have a fitted effect of over 55% in size
Among all 420,000 compounds or so, about 64,000 (15%) were called active. Roughly 27% stayed inconclusive and do not appear here. Calls follow the shape of the dose curve; as a rule, active = well fitted inhibition curve with a large enough effect; inconclusive = small, poorly fitted or top-dose-only effect; inactive = flat fitted curve, though single readings scatter. A selection follows.
Write down one outcome, taken from active, inactive

Data request: Would you mind telling me which call this test gave CS(=O)(=O)Nc1cccc(C2=NN(S(=O)(=O)c3ccccc3)C(c3cccs3)C2)c1 (stereo not given) ?
Data returned: inactive

Data request: Tell me the assay call for `O=c1nc(N/N=C/c2ccco2)cn[nH]1` please.
Data returned: inactive

Data request: Hi team, can someone confirm the assay call for `COc1ccc(C)cc1S(=O)(=O)N(CC(=O)Nc1cccc([N+](=O)[O-])c1)c1ccc(C)cc1` ?
Data returned: active

Data request: Hello, I am checking results. What call was entered for `CN1CCN(CC(=O)Nc2cccc([N+](=O)[O-])c2)CC1` ?
Data returned: inactive

Data request: In this assay, the call recorded for `Cc1cc(NC(=O)CSc2ncc(C(F)(F)F)cc2Cl)no1` was what?
Data returned: inactive

Data request: Please share the test call associated with `CCOc1ccc2[nH]c(=O)c(CN(CCCO)C(C)=O)cc2c1` .
Data returned: inactive

Data request: Answer briefly: the call reported for `CCOC(=O)c1ccc(S(=O)(=O)N(CCO)Cc2cc3cc(OC)c(OC)cc3[nH]c2=O)cc1` in this assay.
Data returned: inactive

Data request: Dear all, I need the recorded test outcome for `CCOc1ccc(Nc2nc(Cc3nnc(SCC(=O)NC4CCCC4)n3C)cs2)cc1` , thank you.
Data returned: inactive

Data request: Hey, what did the test say about `Cc1ccc(S(=O)(=O)N(CC(=O)Nc2cccc([N+](=O)[O-])c2)Cc2ccc(Cl)cc2)cc1` ?
Data returned: active

Data request: Hi, sorry to bother you, what did the test record for COc1cccc(C2CC(c3ccccc3)=NN2S(=O)(=O)c2ccccc2)c1OC (stereo not given) ?
Data returned: active

###

assay: qHTS for Inhibitors of human tyrosyl-DNA phosphodiesterase 1 (TDP1): qHTS in cells in absence of CPT; details: DT40 Tdp1-/- hTDP1 cells, no CPT, ATP luminescence, 48 h; note: nearly all actives have a fitted effect of over 55% in size
The campaign covered roughly 420,000 compounds. About 64,000 (15%) were called active. Another 27% or so got no clear call; they are omitted. Calls come from the whole dose curve; as a rule, active = well fitted inhibition curve with a large enough effect; inconclusive = small, poorly fitted or top-dose-only effect; inactive = flat fitted curve, though single readings scatter. A selection follows.
Respond using exactly one of the listed classes: true (1) for active, false (0) for inactive

Data request: Please indicate how the test categorized `O=C(CCC(=O)N1CCCC1)Nc1ccc([N+](=O)[O-])cc1` .
Data returned: false (0)

Data request: Name the outcome recorded for `CCCCc1c(-c2ccc(Br)cc2)ncn1CCc1ccccc1OC` in the assay.
Data returned: true (1)

Data request: Which result was noted for this compound in the test: `COc1ccccc1CN1CCN(Cc2cc(OC)c(OC)cc2OC)CC1`
Data returned: false (0)

Data request: Please share the test call associated with CCOC(=O)C1=C(C)Nc2nc3ccccc3n2C1c1cccs1 (stereo unspecified) .
Data returned: false (0)

Data request: What did this assay record as the result for `CCc1ccc(NC(=O)CN2C(=O)CSC2=O)cc1` ?
Data returned: false (0)

Data request: How was `COc1cccc(OC)c1C(=O)N1CCN(Cc2ccccc2F)CC1` classified in this test?
Data returned: false (0)

Data request: What did the test return for CC(=O)NCCc1ccc(S(=O)(=O)N(C)C2CCS(=O)(=O)C2)cc1 (stereo unspecified) ?
Data returned: false (0)

Data request: Given `O=C(OCc1ccccc1F)c1ccc2c(c1)OCCO2` , state the outcome it received in this test.
Data returned: false (0)

Data request: # outcome recorded in this test, key = COc1ccccc1NC(=O)C1=C(C)Nc2ncnn2C1c1sccc1C (stereo unspecified)
Data returned: false (0)

Data request: What call does the record list for COc1ccccc1NC(=O)C1=C(C)Nc2nc3ccccc3n2C1c1cccs1 (stereo unspecified) ?
Data returned: true (1)

Data request: Please indicate how the test categorized `COc1ncc2nc(-c3ccc(Cl)cc3)c(=O)n(C)c2n1` .
Data returned: false (0)

###

Experiment: qHTS for Inhibitors of human tyrosyl-DNA phosphodiesterase 1 (TDP1): qHTS in cells in absence of CPT; note: nearly all actives have a fitted effect of over 55% in size
Settings: DT40 Tdp1-/- hTDP1 cells, no CPT, ATP luminescence, 48 h
Method: Human tyrosyl-DNA phosphodiesterase 1 (TDP1) is a novel repair gene, and we propose to use it as a new target for anticancer drug development. […] For the primary screen, Tdp1-/-;hTDP1 cells will be exposed to small molecules in the presence or absence of CPT, and their growth kinetics will be evaluated after 48 hours by measuring ATP activity. […] The hit compounds will then be evaluated in the presence or absence of CPT using Tdp1-/- cells. […]
About 64,000 (15%) of roughly 420,000 compounds were called active. Inconclusive results (about 27%) are left out. Calls follow the shape of the dose curve; as a rule, active = well fitted inhibition curve with a large enough effect; inconclusive = small, poorly fitted or top-dose-only effect; inactive = flat fitted curve, though single readings scatter. A selection follows.
Respond using exactly one of the listed classes: active, inactive

Data request: Could you check what this test reported for `Cn1cc([N+](=O)[O-])c(C(=O)Nc2ccc3c(c2)OCCO3)n1` ?
Data returned: inactive

Data request: Per the records of this test, what outcome belongs to `Cc1cc(C)cc(C(=O)NCCN2CCOCC2)c1` ?
Data returned: inactive

Data request: Give the logged outcome of this assay for the following molecule: `O=C(NCCN1CCOCC1)c1c(F)c(F)c(F)c(F)c1F`
Data returned: inactive

Data request: Test call, this molecule: `CS(=O)(=O)n1nc(-c2ccco2)nc1N`
Data returned: inactive

Data request: What outcome does the record of this test show for `CC(=O)Oc1cc2c(C(=O)NCCN3CCOCC3)c(C)oc2c2ccccc12` ?
Data returned: active

Data request: What call does the record list for `COCCCNc1nc2ccccc2nc1NS(=O)(=O)c1ccc(F)cc1` ?
Data returned: inactive

###

experiment: qHTS for Inhibitors of human tyrosyl-DNA phosphodiesterase 1 (TDP1): qHTS in cells in absence of CPT; conditions: DT40 Tdp1-/- hTDP1 cells, no CPT, ATP luminescence, 48 h; note: nearly all actives have a fitted effect of over 55% in size; note: potency is the fitted concentration of half-maximal effect
In all, about 420,000 compounds went through this assay and about 64,000 (15%) were called active. Another 27% or so got no clear call; they are omitted. Only a sample is shown.
assay metric: Potency

// known answers, use as guide
Cc1cc(C)nc(SCc2ccccc2C#N)n1    inactive
CSCCC(NC(=O)c1ccc(Cl)cc1Cl)C(=O)NNC(=O)c1csc(N2CCOCC2)n1 (stereo unspecified)    inactive
CC(=O)c1ccc(OCC(=O)N(C)C2CCS(=O)(=O)C2)cc1 (stereo unspecified)    inactive
Nc1c(-c2ccc(F)cc2)cnc2ncnn12    inactive
Cc1ccc(/C=N/NC(=O)CN2CCN(Cc3ccccc3)CC2)s1    inactive
Cc1nc2ccccc2c(=O)n1Cc1ccc([N+](=O)[O-])cc1    inactive
CN1CCN(CCCCOc2cccc3ccccc23)CC1    16.4 µM (active)
CCN1CCN(CCCCOc2ccccc2F)CC1    inactive

Sample `C/C(=N/NC(=O)CN1CCN(S(=O)(=O)c2ccc(Br)cc2)CC1)c1ccncc1` ; Potency observed: inactive

Entry `Cc1ccc(S(=O)(=O)N2CCN(CC(=O)N/N=C/c3ccc(Br)s3)CC2)cc1` — recorded Potency = 14.6 µM (active)

Potency measured on `Cc1ccc(C(=O)NC2CCN(C(=O)N3CCOCC3)CC2)cc1` = inactive

###

Assay: qHTS for Inhibitors of human tyrosyl-DNA phosphodiesterase 1 (TDP1): qHTS in cells in absence of CPT; note: nearly all actives have a fitted effect of over 55% in size
Conditions: DT40 Tdp1-/- hTDP1 cells, no CPT, ATP luminescence, 48 h
Method: Human tyrosyl-DNA phosphodiesterase 1 (TDP1) is a novel repair gene, and we propose to use it as a new target for anticancer drug development. […] For the primary screen, Tdp1-/-;hTDP1 cells will be exposed to small molecules in the presence or absence of CPT, and their growth kinetics will be evaluated after 48 hours by measuring ATP activity. […] The hit compounds will then be evaluated in the presence or absence of CPT using Tdp1-/- cells. […]
The whole screen tested about 420,000 compounds, of which about 64,000 (15%) were called active. Roughly 27% stayed inconclusive and do not appear here. The call rests on the fitted dose curve; in most records, active means well fitted inhibition curve with a large enough effect; inconclusive means small, poorly fitted or top-dose-only effect; inactive means flat fitted curve, though single readings scatter. Not all results are given here.
Your answer must be one of the following: active, inactive

Data request: Outcome logged for `CN(Cc1ccccc1)c1ccc(/C=C/c2ccnc3ccccc23)cc1` in this assay:
Data returned: active

Data request: What did this assay record as the result for `Oc1ccc(/C=N/N(Cc2ccccc2)c2ccccc2)cc1` ?
Data returned: inactive

Data request: State the result this test recorded for `CCn1c(O)c(N=NC(=O)c2cccc(S(=O)(=O)N3CCCCC3)c2)c2ccccc21` .
Data returned: active

Data request: Please let me know the test result on file for `COC(=O)Cn1c(O)c(N=NC(=O)OC)c2ccccc21` .
Data returned: inactive

Data request: So what was the verdict on `CN1CCN(S(=O)(=O)c2cccc(C(=O)O)c2)CC1` in this test?
Data returned: inactive

Data request: Hi, sorry to bother you, what did the test record for `CN(C)c1ccc(/C=N/N(Cc2ccccc2)c2ccccc2)cc1` ?
Data returned: inactive
